test system: ARID1A-WT HCT116 cells; test: Drug library screen, cell viability (CellTiter-Glo); format: cell-based, human; settings: HCT116 ARID1A-WT; 10 μM for 5 days; relative to cells treated with solvent (DMSO)
One threshold, 60, splits the recorded Cell viability, WT values: lower ones are 1, equal or higher ones are -1.

compound: COC(=O)[C@@]1(OC)C[C@H]2O[C@]1(C)n1c3ccccc3c3c4c(c5c6ccccc6n2c5c31)C(=O)N(C)C4
test-target: ARID1A-WT HCT116 cells
assigned-label: -1
--
compound: O=C(Nc1cccc(NC(=O)c2cccc(O)c2O)c1)c1cccc(O)c1O
test-target: ARID1A-WT HCT116 cells
assigned-label: 1
--
compound: CC1CNCCN1S(=O)(=O)c1cccc2cnccc12 (stereo not shown)
test-target: ARID1A-WT HCT116 cells
assigned-label: -1
--
compound: COc1cccc(-c2cc(=O)c3ccccc3o2)c1N
test-target: ARID1A-WT HCT116 cells
assigned-label: -1
--
compound: CC(C)n1nc(-c2cc3cc(O)ccc3[nH]2)c2c(N)ncnc21
test-target: ARID1A-WT HCT116 cells
assigned-label: 1
--
compound: Nc1ncnc2c1nc(Sc1ccc(Cl)cc1)n2[C@@H]1O[C@@H]2COP(O)(=S)O[C@H]2[C@H]1O (stereo partly shown)
test-target: ARID1A-WT HCT116 cells
assigned-label: -1
--
compound: COC(=O)c1ccc(NCc2cc(O)ccc2O)cc1
test-target: ARID1A-WT HCT116 cells
assigned-label: 1
--
compound: C=CCc1cccc(/C=N/NC(=O)CN2CCN(Cc3ccccc3)CC2)c1O
test-target: ARID1A-WT HCT116 cells
assigned-label: 1
--
compound: COc1cc2c(cc1OC)-c1[nH]nc(Nc3cccc(F)c3)c1C2
test-target: ARID1A-WT HCT116 cells
assigned-label: 1

----------
system: ARID1A-WT HCT116 cells; assay: Drug library screen, cell viability (CellTiter-Glo); format: cell-based, human; settings: HCT116 ARID1A-WT; 10 μM for 5 days; relative to cells treated with solvent (DMSO)
Numbered stars: 1 amine (or outer) side, 2 acyl side, 3 side chain; on linkers, the order of the positions; unused ones are H or OH. Bridge positions count the residues as written; N and C are the ends. Square brackets hold non-standard residues; d marks the D form. Peptide text beside a SMILES is read from it. I, II: the chains in the order shown. Actinocin(9to1) = Cc1c2oc3c(C)ccc(C(=O)[*:1])c3nc-2c(C(=O)[*:2])c(N)c1=O; NMeV = CN[C@H](C(=O)O)C(C)C; Sar = CNCC(=O)O
One threshold, 90, splits the recorded Cell viability, WT values: lower ones are Met, equal or higher ones are Not met.

molecule: Cc1c[nH]c(/C=C2\C(=O)Nc3ccccc32)c1CCC(=O)O
assigned-label: Not met

molecule: CC1CCN=C(N)S1.Cl (stereo not drawn) [AMT, HCl]
assigned-label: Not met

molecule: O=C1Cc2c([nH]c3ccc(Br)cc23)-c2ncccc2N1
assigned-label: Not met

molecule: O=C1Nc2cc(Br)ccc2/C1=C1/Nc2ccccc2/C1=N\O
assigned-label: Met

molecule: C=C1C(=O)OC(CCCCCCCC)C1C(=O)O (stereo not drawn)
assigned-label: Not met

molecule: Nc1[nH]nc2nnc(-c3c(-c4ccccc4)nn4ccccc34)cc12
assigned-label: Not met

molecule: Cc1c2oc3c(C)ccc(C(=O)N[C@@H]4C(=O)N[C@H](C(C)C)C(=O)N5CCC[C@H]5C(=O)N(C)CC(=O)N(C)[C@@H](C(C)C)C(=O)O[C@@H]4C)c3nc-2c(C(=O)N[C@@H]2C(=O)N[C@H](C(C)C)C(=O)N3CCC[C@H]3C(=O)N(C)CC(=O)N(C)[C@@H](C(C)C)C(=O)O[C@@H]2C)c(N)c1=O [Actinomycin D] (I: T[dV]P[Sar][NMeV] / II: T[dV]P[Sar][NMeV]; ester I:1-I:C, II:1-II:C; linker I:N-II:N via Actinocin(9to1))
assigned-label: Met

molecule: COc1ccc(C2=N[C@@H](c3ccc(Cl)cc3)[C@@H](c3ccc(Cl)cc3)N2C(=O)N2CCNC(=O)C2)c(OC(C)C)c1
assigned-label: Met

molecule: Nc1nc(Nc2ccc(S(N)(=O)=O)cc2)nn1C(=S)Nc1c(F)cccc1F
assigned-label: Met

molecule: CCCCCCCC(=O)OCCOC(=O)CCCCCCC
assigned-label: Not met

molecule: CC(C)c1ccc2c(c1)c(SC(C)(C)C)c(CC(C)(C)C(=O)O)n2Cc1ccc(Cl)cc1
assigned-label: Not met

molecule: Nc1ncnc2nc(-c3ccc(N4CCOCC4)nc3)cc(-c3cccc(Br)c3)c12
assigned-label: Not met

molecule: O=c1cc(N2CCOCC2)oc2c(-c3ccccc3)cccc12
assigned-label: Not met

Origin of values: patent US20220087987A1
